Reference source for all entries: ChEMBL document CHEMBL4825663

test: AUClast in Beagle dog at 3 mg/kg, iv measured upto 48 hrs by LC-MS/MS analysis; format: ADME, organism-based, Canis lupus familiaris; parameters: route intravenous, dose 3 mg/kg, time <=48; conditions: in vivo
OBSERVED PROPERTY: AUC(0-t) at 48 h (ng·h/mL)
Lab book: enter the figure in ng·h/mL, no units written.

For COc1cc2c(cc1OC)CN(CCc1ccc(-n3nnc(-c4cc(OC)c(OC)cc4NC(=O)c4cc(=O)c5ccccc5o4)n3)cc1)CC2 , what is its reported AUC(0-t) at 48 h? 1920

====

assay: Half life in Sprague-Dawley rat at 6 mg/kg, iv measured upto 24 hrs by LC-MS/MS analysis; settings: in vivo
OBSERVED PROPERTY: half-life at 24 h (h)
Lab book: enter the figure in h, no units written.

For CC(=O)O[C@H]1C(=O)[C@@]2(C)[C@H]([C@H](OC(=O)c3ccccc3)[C@]3(O)C[C@H](OC(=O)[C@H](O)[C@@H](NC(=O)c4ccccc4)c4ccccc4)C(C)=C1C3(C)C)[C@]1(OC(C)=O)CO[C@@H]1C[C@@H]2O , what is its reported half-life at 24 h? 7.7
